- Tested on: SNB-19 CNS
- Test Protocol: NCI-60 one-dose screen, 48 h
- Test Settings: 10 µM unless noted
About 83,000 compounds went through this panel and 20% of them were active in at least one assay; those are over-represented in the sample as a whole. Activity calls are given as the source filed them. Rule for the calls: active = growth percent below 10; inactive = the rest.
A correct response names exactly one class from active, inactive

Please let me know the test result on file for COc1ccc(C(=O)Cn2c(C(=O)c3ccc(OC)cc3)nc3ccccc32)cc1 .
inactive

Please let me know the test result on file for O=C1NC(=O)/C(=C/c2c(-c3ccccc3)nc3sc(COc4ccccc4)nn23)S1 .
inactive

Please let me know the test result on file for CC/C=C\CCC/C=C1/C(=O)C=C[C@@H]1C/C=C\CCCC(=O)OC .
inactive

Please let me know the test result on file for COc1ccc(Oc2nc(Nc3ccc(N4CCOCC4)cc3)ncc2NC(=O)Nc2cc(OC)cc(OC)c2)cc1 .
inactive

Please let me know the test result on file for COc1cccc(-c2cc(-c3cccc(Cl)c3)c(C#N)c(=O)[nH]2)c1 .
inactive

Please let me know the test result on file for C=CC(=O)Nc1ccc(Nc2nccc(-c3ccc(N4CCCC4)c(C#N)c3)n2)cc1 .
inactive

Please let me know the test result on file for CCCn1nc(C(=O)N(C)Cc2ccccc2)c2c1CCC(N1CCc3ccccc31)C2 (configuration not stated) .
inactive

Please let me know the test result on file for CC1(C)CC[C@]2(CO)CC[C@]3(C)[C@H](CC[C@@H]4[C@@]5(C)CCCNC(C)(C)[C@@H]5CC[C@]43C)[C@H]2[C@H]1O .
inactive

Please let me know the test result on file for COc1cc(OC)c(/C=C/C(=O)c2c(O)cc(OC)c(C3CCN(C)CC3)c2OC)c(OC)c1 .
active

Please let me know the test result on file for Cc1ccc(Cl)cc1NC(=O)c1sc2nc3c(cc2c1N)C(=O)CCC3 .
inactive

Please let me know the test result on file for COc1cccc(CNc2c3ccccc3nc3ccccc23)c1 .
inactive

Please let me know the test result on file for C=CCN1C(=O)c2cccc3c(N4CCOCC4)ccc(c23)C1=O .
inactive

Please let me know the test result on file for CN(C)c1ccc(-c2nc(-c3ccccc3)c(-c3ccccc3)[nH]2)cc1 .
inactive

Please let me know the test result on file for COc1ccc(-c2nn(-c3ccccc3)cc2/C=C/C(=O)NNC(=O)Nc2ccc(C)cc2)cc1 .
inactive

Please let me know the test result on file for NC(=O)c1cccc([C@@H]2O[C@H](CO)[C@@H](O)[C@H]2O)c1 .
inactive

Please let me know the test result on file for CCOC(=O)C1=C(C)/C(=C\c2[nH]c(C)c(C(=O)OCC)c2C)N=C1C .
inactive

Please let me know the test result on file for CN(CCCNC(=O)Cc1ccc2ccc3cccc4ccc1c2c34)CCCNc1cc(-c2ccc3ccccc3c2)nc2ccccc12 .
active

Please let me know the test result on file for O=C(O)COc1ccc(Cl)c(Cl)c1 .
inactive

Please let me know the test result on file for Nc1c(C(=O)Nc2cccc(Cl)c2)sc2nc3c(cc12)CCCC3 .
inactive

Please let me know the test result on file for COc1cc(-c2nc3sccn3c2-c2ccnc(NCCNS(=O)(=O)c3ccc(Cl)cc3)n2)ccc1F .
inactive

Please let me know the test result on file for CC/C(Cc1ccccc1)=C(\c1ccc(OCCCN(C)C)cc1)c1ccc(OC(=O)NCc2ccccc2)cc1 .
inactive

Please let me know the test result on file for Cc1nc2cc(O)c(O)cc2cc1Oc1ccc(NC(=O)Nc2ccc(Cl)c(Cl)c2)cc1 .
inactive

Please let me know the test result on file for C#CCn1cnc2cnc(Nc3cccc(NC(=O)C=C)c3)nc21 .
inactive

Please let me know the test result on file for Ic1ccccc1I .
inactive

Please let me know the test result on file for Cc1ccc(-c2nc(SCc3nc4cc(Cl)c(Cl)cc4[nH]3)[nH]c(=O)c2C#N)cc1 .
inactive

Please let me know the test result on file for O=C(Nc1ncccc1OCc1ccccc1)NC1CCCCCC1 .
inactive

Please let me know the test result on file for Cc1ncc(C(=O)Nc2ccc(CN3CCN(C)CC3)c(C(F)(F)F)c2)cc1C#Cc1cnc(N)c2ncccc12 .
inactive

Please let me know the test result on file for COc1ccc(-c2nc(/C=C3\C(=O)N(C)c4ccccc43)c3ccccn23)cc1 .
inactive

Please let me know the test result on file for CCOC(=O)C(Cc1ccc(OC)cc1)C(=O)OCC .
inactive

Please let me know the test result on file for O=C(O)/C=C/C(=O)Nc1cccc(Cn2nnc3cc(Cl)c(Cl)cc32)c1 .
inactive

Please let me know the test result on file for O=C(NNC(=O)c1nc2cc(F)ccc2n2cccc12)c1cnccn1 .
inactive

Please let me know the test result on file for COc1ccc(CCN(CC(=O)N(CC(N)=O)C2CCC[C@@H]2OCc2ccccc2)C(=O)CN(C(=O)CN(CCc2ccc(Cl)cc2)C(=O)CN(C(=O)CN(C)Cc2ccccc2F)[C@H](C)C2CCCCC2)[C@H](C)C2CCCCC2)cc1OC (some centres not stated) .
inactive

Please let me know the test result on file for C=C(C)[C@@H]1CC[C@]2(C(N)=O)CC[C@]3(C)[C@H](CC[C@@H]4[C@@]5(C)CC[C@H](OCCC#N)C(C)(C)[C@@H]5CC[C@]43C)[C@@H]12 .
inactive

Please let me know the test result on file for CC(=O)OC[C@]12CC[C@@H]([C@@H](C)c3nnc(-c4ccncc4)o3)[C@@H]1[C@H]1CC[C@@H]3[C@@]4(C)CC[C@H](OC(C)=O)C(C)(C)[C@@H]4CC[C@@]3(C)[C@]1(C)CC2 .
inactive

Please let me know the test result on file for COc1ccc(CCN2C(=O)/C(=C/c3ccc(C4Oc5ccccc5C5CC(c6ccccc6)=NN54)cc3)SC2=S)cc1 (configuration not stated) .
inactive

Please let me know the test result on file for COc1cc(OC)cc(-c2ccc(-c3ccc(C(=N)N)o3)o2)c1 .
inactive

Please let me know the test result on file for CCOC(=O)CC1CSC(Nc2ccccc2)=N1 (configuration not stated) .
inactive

###

Answer each item with its documented growth.
- Tested on: SK-OV-3 ovarian
- Test Protocol: NCI-60 one-dose screen, 48 h (100 = growth as untreated, 0 = no growth, -100 = all killed)
- Test Settings: 10 µM unless noted
- Experimental: Growth inhibition of the SK-OV-3 human tumor cell line is measured as a screen for anti-cancer activity. Cells are grown in 96 well plates and exposed to the test compound for 48 hours. Compounds are tested at a single concentration, which is 10^-5 M for most compounds. The reported endpoint is percent growth (GI% or GIPRCNT), where numbers from 0 - 100% represent growth inhibition, and numbers from -100% - 0 represent cell death. For example, a value of 40 represents 60% growth inhibition. […]
Compounds without any hit were thinned out: in the full panel of roughly 83,000, 20% have a hit.
Record the value in %, omitting the unit from your answer.

Value of growth reported for the compound O=C(/C=C/c1ccccc1)c1ccc(Nc2nc(Nc3ccc(F)cc3)nc(Nc3ccc(Cl)cc3)n2)cc1 is 103

Value of growth reported for the compound C=CC(=O)Nc1ccc(Nc2nccc(-c3ccc(N4CCCC4)c(C#N)c3)n2)cc1 is 8.26

Value of growth reported for the compound C=Cc1cnc(Nc2ccc(OC)cc2)nc1NCCCNC(=O)C1CCC1 is 20.4

Value of growth reported for the compound COc1ccc(/C=C/C(=O)c2cc3c(N)c(C(=O)Nc4cccc(Cl)c4C)sc3nc2C)cc1 is 23.8

Value of growth reported for the compound CCN(CC)CCN1C(=O)c2cccc3c(/C=C/CN4C(=O)c5cccc6cccc(c56)C4=O)ccc(c23)C1=O is 112

Value of growth reported for the compound CN(Cc1cc(Br)cc(Br)c1O)Cc1cc(Br)cc(Br)c1O is 56.4

Value of growth reported for the compound Nc1nc2c(c3ncccc13)C(c1cccc(Cl)c1)Cc1ncccc1-2 (centres undefined) is 14.1

Value of growth reported for the compound Cc1ccc(Cl)cc1NC(=O)c1sc2nc3c(cc2c1N)C(=O)CCC3 is 42.4

Value of growth reported for the compound COc1ccc(C(=O)N2c3ccccc3Sc3ccccc32)c(C(F)(F)F)c1 is 34.4

Value of growth reported for the compound COC(=O)C(Cc1ccccc1)NC(=O)c1ccc(NC(=O)c2[nH]c(C)c(Cl)c2Cl)c(OC(C)C)c1 (centres undefined) is 99.1

Value of growth reported for the compound O=C1C(Nc2ccccn2)=C(I)C(=O)c2ncccc21 is -44.9

Value of growth reported for the compound CC(C)(C)n1cc(-c2ccnc(NCCNS(=O)(=O)c3ccc(O)cc3)c2)c(-c2cccc(O)c2)n1 is 116

Value of growth reported for the compound O=C(CCCCCCN1CC(=O)N2[C@H](c3ccc(Br)cc3)c3[nH]c4ccccc4c3C[C@@H]2C1=O)NO is 49.5

Value of growth reported for the compound CCOC(=O)C1=C(C)C(Cl)=N/C1=C\c1[nH]c(Cl)c(C)c1C(=O)OCC is 81.8

Value of growth reported for the compound O=C1/C(=C2\SC(=S)N(C3CC3)C2=O)SC(=S)N1C1CC1 is 109

Value of growth reported for the compound Cn1cc(-c2ccc(-c3cn(C)c4ccc(Cl)cc34)[nH]2)c2cc(Cl)ccc21 is -53.5

Value of growth reported for the compound Cc1ccc(/C=C/C(=O)Nc2ncc(Cc3ccc(F)cc3)s2)o1 is 64.6

Value of growth reported for the compound O=C(O)c1ccc(-c2ccc(/C=N/Nc3nc(Nc4ccccc4)nc(N4CCCCC4)n3)o2)cc1 is 92

Value of growth reported for the compound CC(=O)c1sc2sc(C(C)=O)c(C)c2c1C is 81.2

Value of growth reported for the compound CCC1S/C(=N\N=C(\C)c2cc3cc(Cl)ccc3o2)N(c2ccccc2)C1=O (centres undefined) is 108

Value of growth reported for the compound Nc1c(C(=O)Nc2cccc(Cl)c2)sc2nc3c(cc12)CCCC3 is 96.2

Value of growth reported for the compound CN1CCN(C(=O)C(C)(C)c2ccc(C(=O)Nc3cn4cc(-c5ccncc5)ccc4n3)cc2)CC1 is 9.33

Value of growth reported for the compound c1ccc(CCNc2c3ccccc3nc3ccccc23)cc1 is 62.6

Value of growth reported for the compound COc1cc(/C=C2\CN(S(=O)(=O)c3ccccc3)C/C(=C\c3cc(CN4CCCCC4)c(O)c(OC)c3)C2=O)cc(CN2CCCCC2)c1O is 108

Value of growth reported for the compound COc1ccc(C2=CC(c3cc(OC)c(OC)c(OC)c3)n3ncnc3N2)cc1 (centres undefined) is -7.15

Value of growth reported for the compound Cc1ccnc(Nc2ccc([N+](=O)[O-])c(NCCN3CCOCC3)n2)c1 is 62.1

Value of growth reported for the compound CCCCNc1cc(-c2cn[nH]c2-c2cc(C)cc(OC)c2)nc(-c2cccnc2)n1 is 97.1

Value of growth reported for the compound Nn1c(=O)c(=O)[nH]c2c(cnn2-c2ccccc2)c1=O is 102

Value of growth reported for the compound Nc1[nH]c(=S)nc2oc(-c3ccccc3)c(-c3ccccc3)c12 is 103

Value of growth reported for the compound O=S(=O)(NCCNc1nccc(-c2c(-c3ccc(F)c(O)c3)nc3sccn23)n1)c1ccc(F)cc1 is 36.1

Value of growth reported for the compound [2H]C([2H])([2H])Oc1ccc(F)cc1/C=C/C(=O)/C=C(O)/C=C/c1cc(F)ccc1OC([2H])([2H])[2H] is 104

Value of growth reported for the compound NC(=O)c1c(NC(=O)c2cccc(C(F)(F)F)c2)sc2c1CCC(=O)C2 is 1.42

Value of growth reported for the compound Cc1n[nH]c2ccc(Br)cc2c1=O is 98.6

Value of growth reported for the compound Cc1c(CC(=S)N2CCOCC2)nnn1-c1cccc(C(F)(F)F)c1 is 108

Value of growth reported for the compound CC1(C)CC[C@]2(CO)CC[C@]3(C)[C@H](CC[C@@H]4[C@@]5(C)CCCNC(C)(C)[C@@H]5CC[C@]43C)[C@H]2[C@H]1O is 92.5

Value of growth reported for the compound O=c1cc(-c2ccccc2)[nH]c2ncc(-c3ccc(F)cc3)n12 is 82.1

Value of growth reported for the compound COC(=O)CC[C@@H]1O[C@@H](c2ccc(F)cc2)[C@@H](O)[C@H]1O is 101

Value of growth reported for the compound CCN1C(=O)N(CC)C2C1NN=c1s/c(=C3\C(=O)N(CCC(C)C)c4ccccc43)c(=O)n12 (centres undefined) is 43.7

Value of growth reported for the compound COc1ccc(-c2nc(/C=C3\C(=O)N(C)c4ccccc43)c3ccccn23)cc1 is 66.8
